Assembled from different publications: pIC50 for human mPGES-1 (Homo sapiens, UniProt O14684).
Remember the convention: pIC50 equals -log10 of concentration in molar.

The following compounds have reported results that may help.
[
  {
    "compound": "CC(C)(C)C1CCC2(CC1)CN(Cc1ccc(Cl)c(-c3nc(O)nc(-c4ccccc4)n3)c1)C2=O (single isomer, unassigned)",
    "pIC50": 7.96
  },
  {
    "compound": "CC(C)Oc1cc(C(=O)NS(=O)(=O)c2ccccc2S(N)(=O)=O)ccc1C#CC(C)(C)C",
    "pIC50": 7.35
  },
  {
    "compound": "CCOc1cc(-c2nc(O)nc(-c3c(C)cccc3C)n2)ccc1Cl",
    "pIC50": 7.00
  },
  {
    "compound": "N#Cc1ccc(-c2cccc(S(=O)(=O)Nc3ccccc3S(N)(=O)=O)c2)cc1",
    "pIC50": 5.89
  },
  {
    "compound": "CC(C)(C)C#Cc1ncc(C(=O)NS(=O)(=O)c2ccccc2S(N)(=O)=O)cc1Cl",
    "pIC50": 7.19
  }
]

Request: Which value of pIC50 has been reported for CO[C@](C)(C(=O)N(C)Cc1ccc(Cl)c(-c2nc(O)nc(-c3ccccc3)n2)c1)C(F)(F)F in the records?
Response: 7.09

Request: Similarly, COc1ncc(-c2cccc(S(=O)(=O)Nc3ccccc3S(N)(=O)=O)c2)cc1Cl ?
Response: 7.66

Request: Similarly, Cc1ccc(NS(=O)(=O)/C=C/c2cccc(C(F)(F)F)c2)c(S(N)(=O)=O)c1 ?
Response: 5.04
